tested on: CEM cells HIV-1 protection, formazan growth assay; experiment: NCI AIDS Antiviral Assay; settings: measured here: growth of uninfected CEM cells
Reported IC50 values for a set of compounds

Worked set:
* C[N+](C)(C)CC(CC(=O)[O-])C1CC1 (centres undefined) | > 1350 µM
* N#CCN1c2ccccc2CCC1Cl (centres undefined) | > 200 µM
* [O-][n+]1c(-c2ccccc2)c2nc3ccccc3nc2c2ccccc21 | > 39.8 µM
* O=C1c2ccccc2-c2ccc3c4ccc5c6c(ccc(c7ccc1c2c73)c64)-c1ccccc1C5=O | > 200 µM
* O=C(O)c1cc(Cl)n[nH]c1=O | > 1410 µM
* O=C1CC[C@H]2[C@@H]3N1c1ccccc1[C@@]31CCN3C/C(=C/CBr)[C@@H]2C[C@H]31 | > 75.9 µM

Measured IC50 of `CCCc1c(C(=O)OCC)[nH]c(-c2ccc(-c3[nH]c(C(=O)OCC)c(CCC)c3C(=O)OCC)s2)c1C(=O)OCC` : > 4.68 µM

Notebook: CN(C)S(=O)(=O)C(c1ccccc1)C1(O)CCCCC1 (centres undefined) , IC50 read as > 437 µM

# IC50 of `O=c1[nH]c2nccn2c2c1SCCN2` = > 200 µM

----------
system: CEM cells HIV-1 protection, formazan growth assay; assay: NCI AIDS Antiviral Assay
pEC50: −log10 of the molar value.
Recorded pEC50 values for a group of molecules are listed next.

So, CCN(CC)C1C=CCC2C1S(=O)(=O)C2(C)C (centres undefined) ? Its pEC50 was < 3.01

----------
tested on: CEM cells HIV-1 protection, formazan growth assay; assay: NCI AIDS Antiviral Assay;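 active means compounds giving half or more protection of infected cells from virus-caused growth loss, again on retest; inactive means the rest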
A correct response names exactly one class from active, inactive

• CCOC(=O)c1c(C(F)(F)F)oc2c1ccc1nc3nonc3nc12 = inactive
• O=C(Cn1cc(F)c(=O)[nH]c1=O)C12CC3CC(CC(C3)C1)C2 = inactive
• NNC(=O)C1C(C(=O)NN)C2C3C=CC(C4C(=O)NC(=O)C34)C12 (stereo unspecified) = inactive
• CC(=O)Oc1ccc2cc(Oc3ccccc3)c(=O)oc2c1 = inactive
• N#Cc1cccc(N2C(=O)c3ccc(C(=O)c4ccc5c(c4)C(=O)N(c4cccc(C#N)c4)C5=O)cc3C2=O)c1 = inactive
• CCc1n[nH]c(=O)n1/N=C/c1ccc(C)cc1 = inactive
• O=C(NC/C(Cl)=C/Cl)Nc1cccc2c1CCCC2 = inactive
• NC(=O)CCC(F)(C(N)=O)C(N)=O = inactive
• CC(=O)Nc1ccc2c(c1)nc1c3ccccc3ccn21 = inactive
• Cc1ccc(/C=C2\Cc3cccc(C)c3C2=O)c(C(=O)O)c1 = inactive

Identify the outcome logged in this assay for the compound shown: Cc1ccc(NC(=O)CC2C(=O)Nc3ccccc3S2=O)cc1C (stereo unspecified)
inactive

Assay outcome for `Cn1cnc2ccccc2c1=S` : what was it?
inactive

Called result for `CCOC(=O)c1c(NS(=O)(=O)c2ccc(C)cc2)sc(C)c1-c1ccccc1`
inactive

Please let me know the test result on file for COC1=CC(=O)c2ccccc2C1(C)C1=NC(C)(C)CO1 (stereo unspecified) .
inactive

Could you kindly confirm the outcome this assay logged for `COC(=N)C(C)C` ?
inactive

What outcome does the record of this test show for CC1=NN(c2ccccc2)C(=O)C1N=Nc1ccc(S(=O)(=O)Nc2ncccn2)cc1 (stereo unspecified) ?
inactive

Hello, I am checking results. What call was entered for Cc1cn(C2COC(CO)C2CO)c(=O)[nH]c1=O (stereo unspecified) ?
active

Write down the call the test reported for this compound. Item: `NC(N)=NS(=O)(=O)c1ccc(NCCc2c3ccccc3nc3ccccc23)cc1`
inactive

Per the records of this test, what outcome belongs to CCOc1cn(C2OC(CO)C(O)C2O)c(=O)[nH]c1=O (stereo unspecified) ?
inactive

Dear colleague, could you share the recorded outcome for C/C=C(/C)C(=O)O[C@@H]1CCN2CC[C@H](COC(=O)/C(=C/C)CO)C12 (stereo partly specified) when you have a moment?
inactive

Write down the call the test reported for this compound. Item: `c1ccc([S+]([CH2][Hg][CH2][S+](c2ccccc2)c2ccccc2)c2ccccc2)cc1`
inactive

----------
Tested on: CEM cells HIV-1 protection, formazan growth assay
Assay: NCI AIDS Antiviral Assay
Protocol: The ability of compounds to protect human CEM cells from HIV-1 infection is measured as a screen for new compounds capable of inhibiting the HIV virus. Five concentrations of drug were tested on uninfected and infected cells and cell growth was measured using a soluble formazan assay. […] Compounds that provided at least 50% protection were retested. Compounds that provided at least 50% protection on retest were listed as moderately active. […]
Each item that follows carries a reported EC50.

Recorded results for 2 molecules are shown here.
* COC(=O)c1c(COC(=O)NC(C)C)c2n(c1C)CS(=O)(=O)C2 | > 200 µM
* O=C(CCCc1cccc2[nH]c3c(c12)CN(Cc1ccccc1)CC3)c1ccc(F)cc1 | > 200 µM

Tested on CEM cells HIV-1 protection, formazan growth assay: CSc1c(C(N)=O)c2c(N)ncnc2n1C1OC(CO)C(O)C1O (configuration not stated) . Observed EC50: > 2 µM

Tested on CEM cells HIV-1 protection, formazan growth assay, the item CCOC(=O)C1SC(=Nc2ccc(C)c(C)c2)N=C1C (configuration not stated) showed EC50 equal to > 18.2 µM

Fill in: CEM cells HIV-1 protection, formazan growth assay EC50 for `COc1ccc2nc3cccc([N+](=O)[O-])c3c(NCCNCCO)c2c1` = > 0.2 µM

Let me check: `Cc1[nH]c2ccccc2c1C(c1c(C)[nH]c2ccccc12)c1c(C)[nH]c2ccccc12` , system CEM cells HIV-1 protection, formazan growth assay, measured EC50 is 0.0631 µM

----------
test system: CEM cells HIV-1 protection, formazan growth assay; test: NCI AIDS Antiviral Assay; conditions: measured here: growth of uninfected CEM cells
pIC50: −log10 of the molar value.
RECORDED ENDPOINT: pIC50

* CC1(C)Cc2c(C#N)c(N)c3c(c2CO1)C(=O)OC3=O | < 4.72
* O=C1CCN(CCC(F)(F)C(F)(F)C(F)(F)C(F)(F)F)C(=S)N1 | < 4.58

Documented pIC50 of `C/C(=N\NC(=O)c1ccncc1)c1cccc(C(F)(F)F)c1` : < 4.07

pIC50 measured on COc1ccc(C2c3cc(OC)c(OC)cc3C(Cc3ccc([N+](=O)[O-])cc3)C2c2ccc([N+](=O)[O-])cc2)cc1OC (centres undefined) = < 5.60

So for `O=C1c2ccccc2C(=O)N1CCc1c[nH]c2ccccc12` , the logged pIC50 turned out to be < 3.70

----------
tested on: CEM cells HIV-1 protection, formazan growth assay; experiment: NCI AIDS Antiviral Assay; conditions: measured here: growth of uninfected CEM cells
RECORDED ENDPOINT: IC50

* C/C(=C\c1ccccc1)C(=O)c1c(C)cc(C)cc1C | > 38 µM

Reported IC50 for COC(=O)C(C(=O)C(=O)NC1=C(Cl)C(=O)c2ccccc2C1=O)c1csc(-n2nc(-c3ccccc3)cc2-c2ccccc2)n1 (stereo not given) was > 11.2 µM

Lab note: measured IC50 of CC(=O)C1(N=Nc2ccc(S(=O)(=O)Nc3ccccn3)cc2)CCOC1=O (stereo not given) was > 200 µM

Notebook: `CN(C)c1ccc(/C=C2\Oc3ccccc3C2=O)cc1` , IC50 read as > 200 µM

Short answer for `O=C(N/N=C/c1cc(-c2ccccc2Cl)c(-c2ccccc2Cl)o1)c1ccncc1` : IC50 was > 12 µM

Short answer for `COC(=O)[C@H](Cc1c[nH]c2ccccc12)NP(=O)(O)OC[C@H]1O[C@@H](n2cc(C)c(=O)[nH]c2=O)C[C@@H]1N=[N+]=[N-]` : IC50 was > 200 µM

For `CC(C)n1c2c(c3ccccc3c1=O)C(=O)c1ccccc1-2` the compound record lists IC50 as > 64.6 µM

The recorded IC50 for entry COC(=O)C1C/C(=C/N(C)C)C(=S)N1 (stereo not given) equals > 200 µM

The reported IC50 of the compound Cc1nc2cccc(F)c2c(=O)n1C1CCCCNC1=O (stereo not given) was > 200 µM

For record CCC1(O)C(=O)Nc2ccccc2C1=O (stereo not given) the listed IC50 is > 200 µM

Reported IC50 ( `Cc1ccc2oc(=O)cc(CC(=O)O)c2c1` ) = > 1150 µM

----------
Overview of reported IC50 across a group of compounds:
tested on: CEM cells HIV-1 protection, formazan growth assay; test: NCI AIDS Antiviral Assay; details: measured here: growth of uninfected CEM cells

• Cc1ccc(/C=C/C(=O)c2sc(C(N)=S)nc2C)cc1 = > 85.1 µM
• O=C1Nc2ccccc2S/C1=C/c1ccccc1 = > 20.4 µM
• O=C(N/C(=C\c1ccccc1O)c1nc2ccccc2[nH]1)c1ccccc1 = > 51.3 µM
• O=S(=O)(c1ccc(Cl)c(Cl)c1)c1ccc(Cl)c(Cl)c1 = > 200 µM

Noted IC50 for `Cc1ncc2c(=O)c3c(oc2n1)c1ccccc1n3Cc1ccccc1` , tested on CEM cells HIV-1 protection, formazan growth assay: > 200 µM

Tested on CEM cells HIV-1 protection, formazan growth assay: `CNC(=O)Oc1cccc(CN(C)C)c1` . Observed IC50: > 200 µM

Reported IC50 (CEM cells HIV-1 protection, formazan growth assay) for entry `CN1C(Cl)=NS(=O)(=O)c2ccccc21` is > 200 µM

Considering C[C@]12CC[C@H](O)CC1=CC[C@@H]1C2CC[C@@]2(C)C1CC[C@@H]2c1nc(-c2ccccc2)cs1 (some centres undefined) , its IC50 with CEM cells HIV-1 protection, formazan growth assay was recorded as > 15.5 µM

Hey, CEM cells HIV-1 protection, formazan growth assay data for `CC(C)CCS(=O)(=O)O` : IC50 came out at > 200 µM

The compound `C/C(=N/NS(=O)(=O)c1ccc(N)cc1)c1ccccc1O` , when measured on CEM cells HIV-1 protection, formazan growth assay, yielded IC50 of > 117 µM

Response field IC50 (CEM cells HIV-1 protection, formazan growth assay) for item COc1ccc(C2CCC(=O)CC2(O)C(=O)O)cc1 (centres undefined) : > 251 µM

Entry `CCOC(=O)c1cc2c([nH]1)c(OC(C)=O)cc1c2ccn1Cc1ccccc1` under CEM cells HIV-1 protection, formazan growth assay had IC50 of > 200 µM

Item: COc1cc(CC2C(=O)OCC2C(=O)c2ccc3c(c2)OCO3)cc(OC)c1OC (centres undefined) | System: CEM cells HIV-1 protection, formazan growth assay | IC50: > 40.7 µM

The reported IC50 value, CEM cells HIV-1 protection, formazan growth assay, for O=C1CC(c2ccsc2)n2cccc21 (centres undefined) reads > 200 µM

Log: CEM cells HIV-1 protection, formazan growth assay, compound `CCc1ccccc1NC(=O)C1=C(C)NC(C)=C(C(=O)Nc2ccccc2CC)C1c1ccc2c(c1)OCO2` , IC50 = > 13.8 µM

# [Cl][Ni].[NH-]C(Cc1c[nH]cn1)C(=O)O (centres undefined) with CEM cells HIV-1 protection, formazan growth assay: IC50 is > 100 µM

# value of IC50, CEM cells HIV-1 protection, formazan growth assay, item `O=c1cn[nH]c2nc3ccccc3n12` = > 200 µM

Value (IC50, CEM cells HIV-1 protection, formazan growth assay) for record COc1ccc(C2c3cc4c(cc3OC(N3CCCCC3)C2C)OCO4)cc1 (centres undefined) = > 200 µM

Reading of IC50 for `O=C(CCSCCC(=O)NNc1ccccc1)NNc1ccccc1` with CEM cells HIV-1 protection, formazan growth assay: > 20 µM
